Listing: melting point of selected compounds

| COMPOUND | melting point |
| --- | --- |
| COc1c(Cl)ccc(-c2nc(C(=O)OCc3ccccc3C(F)(F)F)c(Cl)c(N)c2F)c1F | 133 to 134 °C |
| COC(=O)c1ccc(COC(=O)c2nc(-c3ccc(Cl)c(OC)c3F)c(F)c(N)c2Cl)cc1 | 182 °C |
| COc1ccc(COC(=O)c2nc(-c3ccc(Cl)c(OC)c3F)c(F)c(N)c2Cl)cc1 | 183 to 184 °C |

If you can, please state the reported melting point value of `COc1c(Cl)ccc(-c2nc(C(=O)OCCc3ccccc3)c(Cl)c(N)c2F)c1F` .
84 to 85 °C

Find the recorded melting point belonging to COc1c(Cl)ccc(-c2cc(N)c(Cl)c(C(=O)OC(C)c3ccccc3)n2)c1F (stereo not shown) and report it.
110 to 113 °C

Please give the measured melting point for this compound: `COc1c(Cl)ccc(-c2cc(N)c(Cl)c(C(=O)OCc3ccccc3)n2)c1F`
90 to 91.5 °C

Would you mind telling me what melting point value was observed for `CCOc1c(Cl)ccc(-c2nc(C(=O)OC)c(Cl)c(N)c2F)c1F` ?
170 to 172 °C
